Attribute: pIC50
molecular target: ATP-dependent RNA helicase DDX3X (Homo sapiens, UniProt O00571); test: Inhibition of human recombinant DDX3 ATPase activity expressed in Escherichia coli assessed as [gamma-32P] ATP hydrolysis after 5 mins by densitometric analysis
Sequence (O00571 whole entry): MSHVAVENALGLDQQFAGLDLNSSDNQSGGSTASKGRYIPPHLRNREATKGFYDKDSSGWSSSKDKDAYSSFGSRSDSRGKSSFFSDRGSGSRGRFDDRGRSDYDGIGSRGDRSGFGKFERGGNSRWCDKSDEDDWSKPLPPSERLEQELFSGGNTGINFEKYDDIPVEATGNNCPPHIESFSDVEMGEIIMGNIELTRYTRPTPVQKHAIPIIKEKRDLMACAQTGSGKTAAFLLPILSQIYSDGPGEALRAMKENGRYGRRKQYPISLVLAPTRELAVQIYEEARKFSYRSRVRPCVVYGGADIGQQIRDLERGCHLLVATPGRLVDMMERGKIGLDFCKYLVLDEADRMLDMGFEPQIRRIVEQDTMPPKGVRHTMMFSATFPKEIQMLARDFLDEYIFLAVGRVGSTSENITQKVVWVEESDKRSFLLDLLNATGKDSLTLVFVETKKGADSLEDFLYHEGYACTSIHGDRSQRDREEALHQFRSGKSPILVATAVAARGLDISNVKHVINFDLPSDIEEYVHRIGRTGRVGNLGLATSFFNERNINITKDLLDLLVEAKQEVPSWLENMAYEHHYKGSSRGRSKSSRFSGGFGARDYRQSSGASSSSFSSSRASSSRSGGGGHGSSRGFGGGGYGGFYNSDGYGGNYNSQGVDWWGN
pIC50: −log10 of the molar value.
assay_metric: pIC50

>>> numeric_result("Cc1ccccc1NC(=O)Nc1cccc(NC(=O)Nc2ccccc2C)c1")
4.77
>>> numeric_result("Cc1ccccc1NC(=O)Nc1cccc(N)c1")
4.40
>>> numeric_result("Cc1ccccc1NC(=O)Nc1cccc([N+](=O)[O-])c1")
4.70

----------
selectivity ratio for assorted compounds
assay: Selectivity ratio of CC50 for human PBMC cells to EC50 for multidrug-resistant HIV1 infected in phytohemagglutininin-P-stimulated human PBMC cells; assay type: ADME, cell-based; conditions: read-out: Ratio CC50/EC50
assay_metric: selectivity ratio

>>> numeric_result("Cc1ccccc1NC(=O)Nc1cccc([N+](=O)[O-])c1")
10
>>> numeric_result("Cc1ccccc1NC(=O)Nc1cccc(N)c1")
10

Measured values drawn from ChEMBL document CHEMBL2010683 for this set.
